All values here come from PubChem BioAssay (EPA / NIEHS).

- test-description: BSK_4H_SRB: Viability Assessment in the BioMAP Diversity Plus: 4H Assay (AID 2283027);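 further: cells exposed to compound for 24 h before staining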
- settings: primary human endothelial cells (HUVEC)
- Procedure: BSK_4H is a cell-based, multiplexed-readout assay that uses umbilical vein endothelium, a human vascular primary cell, with measurements taken at 24 hours after chemical dosing in a 96-well plate.BSK_4H_SRB is an assay component measured in the BSK_4H assay. It measures […] related to cell death using Sulforhodamine staining technology.Data from the assay component BSK_4H_SRB was analyzed into 1 assay endpoint. […]
Calls of active or inactive are those of the source. How the source made its calls: active means hit-call score of the fitted dose curve at least 0.9, where 1 is the maximum; inactive means score below 0.9.
A correct response names exactly one class from yes (1) = active, no (0) = inactive

Look up the recorded call for NC(=O)c1c(Cl)cccc1Cl in this test. no (0)

Look up the recorded call for CCCCCCCCCC(=O)OCC in this test. yes (1)

Look up the recorded call for C#C[C@]1(O)CC[C@H]2[C@@H]3CCc4cc(O)ccc4[C@H]3CC[C@@]21C in this test. yes (1)

Look up the recorded call for CCOC(=O)C=Cc1ccccc1 in this test. no (0)

Look up the recorded call for O=C1OC2(c3ccc(O)cc3Oc3cc(O)ccc32)c2ccccc21 in this test. no (0)

Look up the recorded call for c1ccc(OCCOc2ccccc2)cc1 in this test. no (0)

Look up the recorded call for Nc1ccc(N)c([N+](=O)[O-])c1 in this test. no (0)

Look up the recorded call for CC(=O)c1ccc(C)cc1 in this test. no (0)

Look up the recorded call for CCOC(=O)CCCCCCCCC(=O)OCC in this test. no (0)

Look up the recorded call for CCCO[Si](OCCC)(OCCC)OCCC in this test. no (0)

---

- Read-out: Monokine induced gamma interferon (MIG), CXCL9 (gene 4283)
- test-description: BSK_3C_MIG: BioMAP Diversity Plus: 3C Assay for Monokine induced gamma interferon (MIG) Biomarker Activity (AID 2283021)
- settings: primary human endothelial cells (HUVEC); actives raise or lower the signal
- Description: BSK_3C is a cell-based, multiplexed-readout assay that uses umbilical vein endothelium, a human vascular primary cell, with measurements taken at 24 hours after chemical dosing in a 96-well plate.BSK_3C_MIG is an assay component measured in the BSK_3C assay. It measures MIG antibody related to regulation of gene expression using ELISA technology.Data from the assay component BSK_3C_MIG was analyzed into 1 assay endpoint. […]
The source made the active and inactive calls. The calls were made as follows: active = hit-call score of the fitted dose curve at least 0.9, where 1 is the maximum; inactive = score below 0.9.
A correct response names exactly one class from active, inactive

Look up the recorded call for CC=CC(=O)C1=C(C)C=CCC1(C)C in this test. inactive

Look up the recorded call for CC1=CC(C)C(C=O)C(C)C1 (centres undefined) (tested in a mixture with another compound) in this test. inactive

Look up the recorded call for COC(=O)c1ccc(C(=O)OC)cc1 in this test. inactive

Look up the recorded call for O=C(c1ccc(OCCN2CCCCC2)cc1)c1c(-c2ccc(O)cc2)sc2cc(O)ccc12 in this test. active

Look up the recorded call for NC(=O)c1c(Cl)cccc1Cl in this test. inactive

Look up the recorded call for CCCO[Si](OCCC)(OCCC)OCCC in this test. inactive

Look up the recorded call for CCCCOCCOCCO in this test. inactive

Look up the recorded call for CCCCCCCC1CCCC1=O (centres undefined) in this test. inactive

Look up the recorded call for CC(C)CCCC(C)(C)O in this test. inactive

Look up the recorded call for CC(=O)OCC=C(C)CCC=C(C)CCC=C(C)C in this test. inactive

Look up the recorded call for CC(C)(CO)CO in this test. inactive

Look up the recorded call for C[C@]12CC[C@@H]3c4ccc(O)cc4CC[C@H]3[C@@H]1CC[C@@H]2O in this test. inactive

Look up the recorded call for CCOC(=O)CCCCCCCCC(=O)OCC in this test. inactive

Look up the recorded call for C#C[C@]1(O)CC[C@H]2[C@@H]3CCc4cc(O)ccc4[C@H]3CC[C@@]21C in this test. inactive

Look up the recorded call for CCn1cc(C(=O)O)c(=O)c2ccc(C)nc21 in this test. inactive

Look up the recorded call for O=C(O)C(F)(F)C(F)(F)C(F)(F)C(F)(F)C(F)(F)C(F)(F)C(F)(F)C(F)F in this test. inactive

Look up the recorded call for C=C1CC/C=C(\C)CC[C@@H]2[C@@H]1CC2(C)C in this test. active

Look up the recorded call for OCCN1CCOCC1 in this test. inactive

Look up the recorded call for c1ccc(Sc2ccccc2)cc1 in this test. inactive

Look up the recorded call for CC(=O)OC(C)(C)C1CC=C(C)CC1 (centres undefined) in this test. inactive

Look up the recorded call for CC(=O)CCC=C(C)CCC=C(C)C in this test. inactive

Look up the recorded call for CC(C)Cc1ccc(C(C)C(=O)O)cc1 (centres undefined) in this test. inactive

Look up the recorded call for C=C(C)C(=O)OCCC(F)(F)C(F)(F)C(F)(F)C(F)(F)C(F)(F)C(F)(F)C(F)(F)C(F)(F)F in this test. inactive

Look up the recorded call for CC(=O)c1ccc(C)cc1 in this test. inactive

---

- test-description: ATG_ISRE_CIS: Attagene CIS-FACTORIAL HepG2 Assay for human Interferon Regulatory Factor 1 (IRF1) binding to an Interferon-Stimulated Response Element (ISRE) (AID 2282948)
- settings: HepG2 ISRE cis-reporter (Attagene), mRNA transcription readout; actives raise or lower the signal
Calls of active or inactive are those of the source. The calls were made as follows: active = hit-call score of the fitted dose curve at least 0.9, where 1 is the maximum; inactive = score below 0.9.
A correct response names exactly one class from active, inactive

Look up the recorded call for C=COCC1CCC(COC=C)CC1 (stereo not drawn) in this test. inactive

Look up the recorded call for OCCCO in this test. inactive

Look up the recorded call for CCCCC1CCCCC(=O)O1 (stereo not drawn) in this test. inactive

Look up the recorded call for CCCCOCCOC(=O)c1ccccc1C(=O)OCCOCCCC in this test. inactive

Look up the recorded call for C1CCCNCC1 in this test. inactive

Look up the recorded call for CC(C)Cc1ccccc1 in this test. inactive

Look up the recorded call for O=C1OC2(c3ccc(O)cc3Oc3cc(O)ccc32)c2ccccc21 in this test. inactive

Look up the recorded call for C=CCOC(=O)/C=C\C(=O)OCC=C in this test. active

---

- system-tested: human Norepinephrine Transporter (NET), SLC6A2 (gene 6530)
- test-description: NVS_TR_hNET: NovaScreen (NVS) Transporter Assay for human Norepinephrine Transporter (NET) (AID 2283377);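 further: cell-free membrane protein extracted from CHO cells expressing human NET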
Results filed as inconclusive are left out. The source made the active and inactive calls. How the source made its calls: active means hit-call score of the fitted dose curve at least 0.9, where 1 is the maximum; inconclusive means response in the unintended direction; inactive means score below 0.9.
A correct response names exactly one class from YES for active, NO for inactive

Look up the recorded call for O=C1OC2(c3ccc(O)cc3Oc3cc(O)ccc32)c2ccccc21 in this test. NO

Look up the recorded call for O=C(c1ccc(OCCN2CCCCC2)cc1)c1c(-c2ccc(O)cc2)sc2cc(O)ccc12 in this test. YES

Look up the recorded call for CCOC(=O)C=Cc1ccccc1 in this test. YES

Look up the recorded call for C=C(C)C(N)=O in this test. NO

---

- test-description: ATG_M_06_TRANS: Attagene TRANS-FACTORIAL HepG2 Assay for M06 Transcription Factor (Internal Marker) (AID 2282983);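 further: reporter transcript level by RT-PCR then capillary electrophoresis fluorescence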
- settings: HepG2 Attagene TRANS M06 internal marker reporter
Inconclusive results are not listed. Activity calls are given as the source filed them. The calls were made as follows: active = hit-call score of the fitted dose curve at least 0.9, where 1 is the maximum; inconclusive = response in the unintended direction; inactive = score below 0.9.
measured-endpoint: outcome

Find the recorded outcome belonging to CC1=CCC(C(C)(C)O)CC1 (centres undefined) and report it. inactive

Find the recorded outcome belonging to CCCCCCCCOC(C)=O and report it. inactive

Find the recorded outcome belonging to CC(C)Cc1ccccc1 and report it. inactive

Find the recorded outcome belonging to CC(CCO)CC(C)(C)C (centres undefined) and report it. inactive

Find the recorded outcome belonging to CC12CCC(C1)C(C)(C)C2O (centres undefined) and report it. inactive

Find the recorded outcome belonging to Brc1cc(Br)cc(Br)c1 and report it. inactive

Find the recorded outcome belonging to COc1ccc2[nH]cc(CCNC(C)=O)c2c1 and report it. inactive

Find the recorded outcome belonging to C[C@H](CCC(=O)O)[C@H]1CC[C@H]2[C@@H]3CC[C@@H]4C[C@H](O)CC[C@]4(C)[C@H]3CC[C@]12C and report it. inactive

Find the recorded outcome belonging to O=C(O)c1cc2ccccc2cc1O and report it. inactive

Find the recorded outcome belonging to C#C[C@]1(O)CC[C@H]2[C@@H]3CCc4cc(O)ccc4[C@H]3CC[C@@]21C and report it. inactive

New cases:
Find the recorded outcome belonging to C/C=C(\C)C(=O)OC/C=C(\C)CCC=C(C)C and report it. inactive

Find the recorded outcome belonging to CC1=C(C=O)C(C)(C)CCC1 and report it. inactive

Find the recorded outcome belonging to CCCCCCCCCCCCN1CCOCC1 and report it. inactive

Find the recorded outcome belonging to N#CCCCC(C#N)CCC#N (centres undefined) and report it. inactive

---

- system-tested: human Retinoic Acid Receptor beta (RARb), RARB (gene 5915)
- test-description: ATG_RARb_TRANS: Attagene TRANS-FACTORIAL HepG2 Assay for human Retinoic Acid Receptor beta (AID 2283004)
Records with an inconclusive call do not appear. Active and inactive are the calls of the source. How the source made its calls: active means hit-call score of the fitted dose curve at least 0.9, where 1 is the maximum; inconclusive means response in the unintended direction; inactive means score below 0.9.
measured-endpoint: outcome

These recorded examples may help you get a feel for the data.
Find the recorded outcome belonging to ClCCOCCOCCCl and report it. inactive

Find the recorded outcome belonging to CC(C)C(=O)c1ccccc1 and report it. inactive

Find the recorded outcome belonging to CCCO and report it. inactive

Find the recorded outcome belonging to C1=COCCC1 and report it. inactive

Find the recorded outcome belonging to Cc1cc(O)c2c(c1)C(=O)c1cc(O)cc(O)c1C2=O and report it. inactive

Then this compound:
Find the recorded outcome belonging to CNC(=C[N+](=O)[O-])NCCSCc1ccc(CN(C)C)o1 and report it. inactive
